Test system: MDA-MB-231
assayProtocol: Cytotoxicity against human MDA-MB-231 cells overexpressing urokinase plasminogen activator
Assay type: functional, cell-based
assayReadout: IC50 (nM)
# number only, unit nM dropped from output

Which IC50 is reported for this compound? O=c1[nH]c(=O)n([C@H]2C[C@H](O)[C@@H](CO)O2)cc1F [FLOXURIDINE]
210

The values you see were collected from ChEMBL document CHEMBL1157921.
